- Target system: kappa receptor (Mus musculus, UniProt P33534)
- Construct: Five CF-1 male mice (Charles River, Portage, Mich.); from tissue; host or cells: whole living CF-1 male mice (in vivo)
- Sequence (P33534 whole entry): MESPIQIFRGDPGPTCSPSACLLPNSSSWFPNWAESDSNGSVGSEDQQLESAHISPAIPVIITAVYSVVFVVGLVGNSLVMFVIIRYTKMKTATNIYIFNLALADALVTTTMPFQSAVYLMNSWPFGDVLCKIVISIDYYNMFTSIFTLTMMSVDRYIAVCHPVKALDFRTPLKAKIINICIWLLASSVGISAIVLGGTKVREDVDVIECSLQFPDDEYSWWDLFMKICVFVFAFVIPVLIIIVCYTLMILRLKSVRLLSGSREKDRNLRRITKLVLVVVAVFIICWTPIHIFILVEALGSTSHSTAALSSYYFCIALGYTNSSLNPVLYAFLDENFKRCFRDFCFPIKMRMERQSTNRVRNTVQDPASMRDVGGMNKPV
- Experimental protocol: in vivo
- Parameters: species or system CF-1 male mice
- Experimental context: sc, read-out: Kappa AD50
Where a name gives a salt, the structure may show the parent alone.
Exercise: for every item that follows, state its recorded ED50.
# unit: mg/kg | format: bare number

Give recorded ED50. CC(C)CCCCN1CC[C@@](C)(c2cccc(O)c2)[C@@H](C)C1 (stereo in doubt) [Example 28, hydrochloride]
0.22

Give recorded ED50. CC1CN(CCC(=O)C2CCCCC2)CCC1(C)c1cccc(O)c1 (centres unmarked) [Example 33, hydrochloride]
0.26

Give recorded ED50. CCCCCCN1CC[C@](C)(c2cccc(O)c2)[C@H](C)C1 (stereo in doubt) [Example 2, hydrochloride]
0.29

Give recorded ED50. CCCC(O)CCN1CC[C@@](C)(c2cccc(O)c2)[C@@H](C)C1 (relative stereo) [Example 30, hydrochloride]
0.47

Give recorded ED50. CCCCCC(=O)CCN1CCC(C)(c2cccc(O)c2)C(C)C1 (centres unmarked) [Example 32, hydrochloride]
3.5

Give recorded ED50. CC1CN(CCCc2cccs2)CCC1(C)c1cccc(O)c1 (centres unmarked) [Example 35, hydrochloride]
0.3

Give recorded ED50. C[C@H]1CN(CCC(O)c2cccs2)CC[C@@]1(C)c1cccc(O)c1 (relative stereo) [Example 40, hydrochloride]
0.14

Give recorded ED50. CC1CN(CCC2CCCC2)CCC1(C)c1cccc(O)c1 (centres unmarked) [Example 6, hydrochloride]
0.22

Give recorded ED50. C[C@@H]1CN(CC[C@H](O)C2CCCCC2)CC[C@]1(C)c1cccc(O)c1 [Example 24]
0.24

Give recorded ED50. CCCCCCN1CCC(C)(c2cccc(O)c2)C(C)C1 (centres unmarked) [Example 22, hydrochloride]
0.11

Give recorded ED50. C[C@H]1CN(CC[C@H](O)C2CCCCC2)CC[C@@]1(C)c1cccc(O)c1 [Example 23]
0.07

Give recorded ED50. C[C@H]1CN(CCC(O)c2ccccc2)CC[C@@]1(C)c1cccc(O)c1 (relative stereo) [Compound A, hydrochloride, reference compound]
0.92

Give recorded ED50. C[C@H]1CN(CCC(O)C2CCCC2)CC[C@@]1(C)c1cccc(O)c1 (relative stereo) [Example 18, hydrochloride]
0.08

Give recorded ED50. CC(C)CCN1CCC(C)(c2cccc(O)c2)C(C)C1 (centres unmarked) [Example 16, hydrochloride]
0.62

# credit: patent US4992450A
